- Tested on: E. coli MC4100 (wild type, WT)
- Protocol notes: microbe, parasite or virus in culture
- Condition: wild type
Where a SMILES comes first, the peptide text is derived from it. Bridges are numbered along the chain shown (N, C = ends). The star is where a group is joined. Lauroyl = CCCCCCCCCCCC(=O)*
Recorded metric: MIC E. coli MC4100 (WT)

Compound | Reported measurement
CC(C)C[C@H](NC(=O)[C@H](CCCCN)NC(=O)[C@@H]1CSSC[C@H](N)C(=O)NCC(=O)N[C@@H](CCCCN)C(=O)N[C@@H](CCCCN)C(=O)N2CCC[C@H]2C(=O)N[C@@H](Cc2c[nH]c3ccccc23)C(=O)N[C@@H](Cc2c[nH]c3ccccc23)C(=O)N[C@@H](Cc2c[nH]c3ccccc23)C(=O)N[C@@H](CCCCN)C(=O)N1)C(N)=O [cTurg-4] (H-CGKKPWWWKCKL-NH2; disulfide 1-10; N-terminus assumed) | 16 µg/mL
CC(C)C[C@H](NC(=O)[C@H](CCCNC(=N)N)NC(=O)[C@@H]1CSSC[C@H](N)C(=O)NCC(=O)N[C@@H](CCCNC(=N)N)C(=O)N[C@@H](CCCNC(=N)N)C(=O)N2CCC[C@H]2C(=O)N[C@@H](Cc2c[nH]c3ccccc23)C(=O)N[C@@H](Cc2c[nH]c3ccccc23)C(=O)N[C@@H](Cc2c[nH]c3ccccc23)C(=O)N[C@@H](CCCNC(=N)N)C(=O)N1)C(N)=O [cTurg-7] (H-CGRRPWWWRCRL-NH2; disulfide 1-10; N-terminus assumed) | 8 µg/mL
CCCCCCCCCCCC(=O)N[C@H]1CSSC[C@@H](C(=O)N[C@@H](CCCCN)C(=O)N[C@@H](CC(C)C)C(N)=O)NC(=O)[C@H](CCCCN)NC(=O)[C@H](Cc2c[nH]c3ccccc23)NC(=O)CNC(=O)[C@H](Cc2c[nH]c3ccccc23)NC(=O)[C@H](Cc2c[nH]c3ccccc23)NC(=O)[C@H](CCCCN)NC(=O)[C@H](CCCCN)NC(=O)CNC1=O [Peptide C12-cTurg-2, C12- (CGKKWWGWKC)KL-NH2] (Lauroyl-CGKKWWGWKCKL-NH2; disulfide 1-10) | 8 µg/mL

---

- System: E. coli MC4100 (wild type, WT)
- Protocol notes: microbe, parasite or virus in culture
- Condition: wild type
Where a SMILES comes first, the peptide text is derived from it. Bridges are numbered along the chain shown (N, C = ends). The star is where a group is joined. Decanoyl = CCCCCCCCCC(=O)*; Octanoyl = CCCCCCCC(=O)*
# maps each entry to its MIC E. coli MC4100 (WT)

Compound | MIC E. coli MC4100 (WT) (µg/mL)
CCCCCCCCCC(=O)N[C@H]1CSSC[C@@H](C(=O)N[C@@H](CCCCN)C(=O)N[C@@H](CC(C)C)C(N)=O)NC(=O)[C@H](CCCCN)NC(=O)[C@H](Cc2c[nH]c3ccccc23)NC(=O)CNC(=O)[C@H](Cc2c[nH]c3ccccc23)NC(=O)[C@H](Cc2c[nH]c3ccccc23)NC(=O)[C@H](CCCCN)NC(=O)[C@H](CCCCN)NC(=O)CNC1=O [Peptide C10-cTurg-2, C10- (CGKKWWGWKC)KL-NH2] (Decanoyl-CGKKWWGWKCKL-NH2; disulfide 1-10) | 8
CC(C)C[C@H](NC(=O)[C@H](CCCCN)NC(=O)[C@@H]1CSSC[C@H](N)C(=O)NCC(=O)N[C@@H](CCCCN)C(=O)N[C@@H](CCCCN)C(=O)N[C@@H](Cc2c[nH]c3ccccc23)C(=O)NCC(=O)N[C@@H](Cc2c[nH]c3ccccc23)C(=O)N[C@@H](Cc2c[nH]c3ccccc23)C(=O)N[C@@H](CCCCN)C(=O)N1)C(N)=O [cTurg-3] (H-CGKKWGWWKCKL-NH2; disulfide 1-10; N-terminus assumed) | 16
CCCCCCCC(=O)N[C@H]1CSSC[C@@H](C(=O)N[C@@H](CCCCN)C(=O)N[C@@H](CC(C)C)C(N)=O)NC(=O)[C@H](CCCCN)NC(=O)[C@H](Cc2c[nH]c3ccccc23)NC(=O)CNC(=O)CNC(=O)[C@@H]2CCCN2C(=O)[C@H](CCCCN)NC(=O)[C@H](CCCCN)NC(=O)CNC1=O [Peptide C8-cTurg-1, C8 -(CGKKPGGWKC)KL-NH2] (Octanoyl-CGKKPGGWKCKL-NH2; disulfide 1-10) | 16

---

- Tested on: S. epidermidis RP62A (Se, ATCC 35984)
- Protocol notes: microbe, parasite or virus in culture
- Format: cell-based, Staphylococcus epidermidis
- Condition: ATCC 35984, 24 h
Where a SMILES comes first, the peptide text is derived from it. Bridges are numbered along the chain shown (N, C = ends). The star is where a group is joined. Lauroyl = CCCCCCCCCCCC(=O)*; Decanoyl = CCCCCCCCCC(=O)*; Octanoyl = CCCCCCCC(=O)*
# maps each entry to its Antimicrobial Activity (MIC) Gram + Se

Compound | Antimicrobial Activity (MIC) Gram + Se (µg/mL)
CCCCCCCC(=O)N[C@@H](CS)C(=O)NCC(=O)N[C@@H](CCCNC(=N)N)C(=O)N[C@@H](CCCNC(=N)N)C(=O)N[C@@H](Cc1c[nH]c2ccccc12)C(=O)NCC(=O)N[C@@H](Cc1c[nH]c2ccccc12)C(=O)N[C@@H](Cc1c[nH]c2ccccc12)C(=O)N[C@@H](CCCNC(=N)N)C(=O)N[C@@H](CS)C(=O)N[C@@H](CCCNC(=N)N)C(=O)N[C@@H](CC(C)C)C(N)=O [Peptide C8-Turg-6, C8- CGRRWGWWRC RL-NH2] (Octanoyl-CGRRWGWWRCRL-NH2) | 8
CCCCCCCCCC(=O)N[C@H]1CSSC[C@@H](C(=O)N[C@@H](CCCCN)C(=O)N[C@@H](CC(C)C)C(N)=O)NC(=O)[C@H](CCCCN)NC(=O)[C@H](Cc2c[nH]c3ccccc23)NC(=O)CNC(=O)[C@H](Cc2c[nH]c3ccccc23)NC(=O)[C@H](Cc2c[nH]c3ccccc23)NC(=O)[C@H](CCCCN)NC(=O)[C@H](CCCCN)NC(=O)CNC1=O [Peptide C10-cTurg-2, C10- (CGKKWWGWKC)KL-NH2] (Decanoyl-CGKKWWGWKCKL-NH2; disulfide 1-10) | 4
CCCCCCCC(=O)N[C@H]1CSSC[C@@H](C(=O)N[C@@H](CCCNC(=N)N)C(=O)N[C@@H](CC(C)C)C(N)=O)NC(=O)[C@H](CCCNC(=N)N)NC(=O)[C@H](Cc2c[nH]c3ccccc23)NC(=O)[C@H](Cc2c[nH]c3ccccc23)NC(=O)CNC(=O)[C@H](Cc2c[nH]c3ccccc23)NC(=O)[C@H](CCCNC(=N)N)NC(=O)[C@H](CCCNC(=N)N)NC(=O)CNC1=O [Peptide C8-cTurg-6, C8- (CGRRWGWWRC)RL-NH2] (Octanoyl-CGRRWGWWRCRL-NH2; disulfide 1-10) | 4
CCCCCCCCCC(=O)N[C@H]1CSSC[C@@H](C(=O)N[C@@H](CCCCN)C(=O)N[C@@H](CC(C)C)C(N)=O)NC(=O)[C@H](CCCCN)NC(=O)[C@H](Cc2c[nH]c3ccccc23)NC(=O)CNC(=O)CNC(=O)[C@@H]2CCCN2C(=O)[C@H](CCCCN)NC(=O)[C@H](CCCCN)NC(=O)CNC1=O [Peptide C10-cTurg-1, C10 -(CGKKPGGWKC)KL-NH2] (Decanoyl-CGKKPGGWKCKL-NH2; disulfide 1-10) | 4
CC(C)C[C@H](NC(=O)[C@H](CCCCN)NC(=O)[C@@H]1CSSC[C@H](N)C(=O)NCC(=O)N[C@@H](CCCCN)C(=O)N[C@@H](CCCCN)C(=O)N2CCC[C@H]2C(=O)N[C@@H](Cc2c[nH]c3ccccc23)C(=O)N[C@@H](Cc2c[nH]c3ccccc23)C(=O)N[C@@H](Cc2c[nH]c3ccccc23)C(=O)N[C@@H](CCCCN)C(=O)N1)C(N)=O [cTurg-4] (H-CGKKPWWWKCKL-NH2; disulfide 1-10; N-terminus assumed) | 32
CCCCCCCCCCCC(=O)N[C@@H](CS)C(=O)NCC(=O)N[C@@H](CCCNC(=N)N)C(=O)N[C@@H](CCCNC(=N)N)C(=O)N[C@@H](Cc1c[nH]c2ccccc12)C(=O)NCC(=O)N[C@@H](Cc1c[nH]c2ccccc12)C(=O)N[C@@H](Cc1c[nH]c2ccccc12)C(=O)N[C@@H](CCCNC(=N)N)C(=O)N[C@@H](CS)C(=O)N[C@@H](CCCNC(=N)N)C(=O)N[C@@H](CC(C)C)C(N)=O [Peptide C12-Turg-6, C12- CGRRWGWWRC RL-NH2] (Lauroyl-CGRRWGWWRCRL-NH2) | 16
CCCCCCCC(=O)N[C@@H](CS)C(=O)NCC(=O)N[C@@H](CCCCN)C(=O)N[C@@H](CCCCN)C(=O)N1CCC[C@H]1C(=O)NCC(=O)NCC(=O)N[C@@H](Cc1c[nH]c2ccccc12)C(=O)N[C@@H](CCCCN)C(=O)N[C@@H](CS)C(=O)N[C@@H](CCCCN)C(=O)N[C@@H](CC(C)C)C(N)=O [Peptide C8-Turg-1, C8- CGKKPGGWKC KL-NH2] (Octanoyl-CGKKPGGWKCKL-NH2) | 32
CCCCCCCCCCCC(=O)N[C@H]1CSSC[C@@H](C(=O)N[C@@H](CCCCN)C(=O)N[C@@H](CC(C)C)C(N)=O)NC(=O)[C@H](CCCCN)NC(=O)[C@H](Cc2c[nH]c3ccccc23)NC(=O)CNC(=O)CNC(=O)[C@@H]2CCCN2C(=O)[C@H](CCCCN)NC(=O)[C@H](CCCCN)NC(=O)CNC1=O [Peptide C12-cTurg-1, C12 -(CGKKPGGWKC)KL-NH2] (Lauroyl-CGKKPGGWKCKL-NH2; disulfide 1-10) | 4
CC(C)C[C@H](NC(=O)[C@H](CCCNC(=N)N)NC(=O)[C@@H]1CSSC[C@H](N)C(=O)NCC(=O)N[C@@H](CCCNC(=N)N)C(=O)N[C@@H](CCCNC(=N)N)C(=O)N2CCC[C@H]2C(=O)N[C@@H](Cc2c[nH]c3ccccc23)C(=O)N[C@@H](Cc2c[nH]c3ccccc23)C(=O)N[C@@H](Cc2c[nH]c3ccccc23)C(=O)N[C@@H](CCCNC(=N)N)C(=O)N1)C(N)=O [cTurg-7] (H-CGRRPWWWRCRL-NH2; disulfide 1-10; N-terminus assumed) | 8
CCCCCCCC(=O)N[C@H]1CSSC[C@@H](C(=O)N[C@@H](CCCCN)C(=O)N[C@@H](CC(C)C)C(N)=O)NC(=O)[C@H](CCCCN)NC(=O)[C@H](Cc2c[nH]c3ccccc23)NC(=O)CNC(=O)CNC(=O)[C@@H]2CCCN2C(=O)[C@H](CCCCN)NC(=O)[C@H](CCCCN)NC(=O)CNC1=O [Peptide C8-cTurg-1, C8 -(CGKKPGGWKC)KL-NH2] (Octanoyl-CGKKPGGWKCKL-NH2; disulfide 1-10) | 32
